Test system: P388 leukemia ip, CD2F1 mice, survival T/C
Method Summary: NCI In Vivo Anticancer Drug Screen. Data for tumor model P388 Leukemia (intraperitoneal) in CD2F1 (CDF1) mice
Setup Conditions: endpoint: median survival time; dose: 400.0 mg/kg/injection; schedule: Q04DX003 (ip); vehicle: saline; higher = longer survival
Toxic doses and inconclusive results are not listed.
Property: T/C; scope: individual compounds

>>> df
                                   compound               val
0  Cc1ccc(C2NC(c3ccc(C)cc3)C3CCCC2C3O)cc1 (stereo not drawn)   95 % of control
1  Cc1cc(OCc2nc(N)nc(N)c2-c2ccc(Cl)c(Cl)c2)ccc1NS(=O)(=O)c1cccc(S(=O)(=O)F)c1  150 % of control

We next turn to a different compound, shown below.
**Query** Entry O=C(CCS(=O)(=O)CCC(=O)c1ccc2ccccc2c1)c1ccc2ccccc2c1 needs its T/C filled in; supply it.
**Result** 88 % of control

###

System: P388 leukemia ip, CD2F1 mice, survival T/C
Method Summary: NCI In Vivo Anticancer Drug Screen. Data for tumor model P388 Leukemia (intraperitoneal) in CD2F1 (CDF1) mice
Setup Conditions: endpoint: median survival time; dose: 120.0 mg/kg/injection; schedule: Q01DX005 (ip); vehicle: Klucel (hydroxypropylcellulose) (HPC); higher = longer survival
Toxic doses and inconclusive results are not listed.
Property: T/C; scope: individual compounds

                       compound               val
0  CCN(CC)C(=O)c1cncc(C(N)=O)c1  111 % of control

**Query** Entry CC(=O)OC1CSc2ccccc2N(C(C)=O)C1 (stereo not given) needs its T/C filled in; supply it.
**Result** 99 % of control

**Query** Entry CN1C(=O)N(C)C2(C(=O)N(C)C(=O)N2C)N(C)C1=O needs its T/C filled in; supply it.
**Result** 96 % of control

**Query** Entry O=c1[nH]c2cc(Cl)ccc2nc1/C=C(\O)c1ccc([N+](=O)[O-])cc1 needs its T/C filled in; supply it.
**Result** 96 % of control

**Query** Entry O=c1[nH]c2cc(Cl)ccc2nc1/C=C(\O)c1ccccc1 needs its T/C filled in; supply it.
**Result** 91 % of control

###

Property: T/C; scope: individual compounds
Tested on: P388 leukemia ip, CD2F1 mice, survival T/C
Method Summary: NCI In Vivo Anticancer Drug Screen. Data for tumor model P388 Leukemia (intraperitoneal) in CD2F1 (CDF1) mice
Setup Conditions: endpoint: median survival time; dose: 200.0 mg/kg/injection; schedule: Q04DX003 (ip); vehicle: saline with Tween-80; higher = longer survival
Toxic doses and inconclusive results are not listed.

>>> df
                                   compound               val
0   CCOC(=O)/N=c1/nc2ccn(C)c2c(NC(=O)OCC)s1   96 % of control
1  CCOC(C[Se]c1ccccc1)OCC(F)(F)F (centres undefined)  111 % of control
2                      C=CN=NNc1ccc(C#N)cc1  106 % of control

**Query** Entry CC(=O)/C=C\c1ccc(Cl)cc1 needs its T/C filled in; supply it.
**Result** 98 % of control

###

Test system: P388 leukemia ip, CD2F1 mice, survival T/C
Method Summary: NCI In Vivo Anticancer Drug Screen. Data for tumor model P388 Leukemia (intraperitoneal) in CD2F1 (CDF1) mice
Setup Conditions: endpoint: median survival time; dose: 200.0 mg/kg/injection; schedule: Q01DX005 (ip); vehicle: Klucel (hydroxypropylcellulose) (HPC); higher = longer survival
Protocol: The antitumor activity of compounds was measured in mice bearing transplantable tumors. Survival or tumor size were measured and the results are expressed as the measurement made in the treated group (T) divided by the measurement made in the vehicle treated control group (C). The tumor model used in this assay is P388 Leukemia (intraperitoneal) in CD2F1 (CDF1) mice
Toxic doses and inconclusive results are not listed. Square brackets hold non-standard residues; d marks the D form. Peptide text beside a SMILES is read from it. * marks the point of attachment. Nle = CCCC[CH](N)C(=O)O; Cbz = O=C(OCc1ccccc1)*
Quantity Measured: T/C

**Query** Entry C=C(Br)C(=NC(C)(C)C)Nc1ccc(Cl)cc1 needs its T/C filled in; supply it.
**Result** 102 % of control

**Query** Entry N#Cc1c(-c2ccc(Cl)cc2)c(-c2ccc(Cl)cc2)n[nH]c1=O needs its T/C filled in; supply it.
**Result** 104 % of control

**Query** Entry CN1C(=O)c2ccc3c4ccc5c6c(ccc(c7ccc(c2c37)C1=O)c64)C(=O)OC5=O needs its T/C filled in; supply it.
**Result** 103 % of control

**Query** Entry COC(=O)c1c(C)cc(OC)c(C/C=C(\C)CCCc2coc(C=C(C)C)c2)c1OC needs its T/C filled in; supply it.
**Result** 99 % of control

**Query** Entry NC(=O)/C(N=Nc1ccccc1I)=N\Nc1ccccc1I needs its T/C filled in; supply it.
**Result** 97 % of control

**Query** Entry O=CNC(Cc1ccc(O)cc1)C(=O)O (configuration not stated) needs its T/C filled in; supply it.
**Result** 96 % of control

**Query** Entry Cc1cnc(NCCCNc2ncc(C)c(-c3ccccc3O)n2)nc1-c1ccccc1O needs its T/C filled in; supply it.
**Result** 92 % of control

**Query** Entry CC1CCc2c(c3ccc(O)cc3oc2=O)C1 (configuration not stated) needs its T/C filled in; supply it.
**Result** 92 % of control

**Query** Entry CN1CCc2sccc2C(c2ccccc2)O1 (configuration not stated) needs its T/C filled in; supply it.
**Result** 113 % of control

**Query** Entry CCCCC(NC(=O)OCc1ccccc1)C(=O)NC(C(=O)O)C(C)C (configuration not stated) (Cbz-[Nle]-Val-OH; configuration not given here) needs its T/C filled in; supply it.
**Result** 104 % of control

**Query** Entry COc1ccc(CSCC(NC(=O)OC(C)(C)C)C(=O)O)cc1 (configuration not stated) needs its T/C filled in; supply it.
**Result** 100 % of control

**Query** Entry Cc1ccccc1-n1c(COc2c(C)cccc2C)n[nH]c1=S needs its T/C filled in; supply it.
**Result** 99 % of control

###

System: P388 leukemia ip, CD2F1 mice, survival T/C
Method Summary: NCI In Vivo Anticancer Drug Screen. Data for tumor model P388 Leukemia (intraperitoneal) in CD2F1 (CDF1) mice
Setup Conditions: endpoint: median survival time; dose: 200.0 mg/kg/injection; schedule: Q01DX001 (ip); vehicle: Klucel (hydroxypropylcellulose) (HPC); higher = longer survival
Inconclusive results and toxic doses are left out.
Property: T/C; scope: individual compounds

Answered examples (5):
                                   compound  quantity_measured               val
0  Cc1ccc(-c2nc3n(c2/C=N/NS(=O)(=O)c2ccc(C)cc2)CCS3)cc1                T/C   93 % of control
1          CCOC(=O)c1ccc(NC(=O)c2ccccc2)cc1                T/C   92 % of control
2  C=CCN1C(=O)CS/C1=N\NC(=O)Cc1nc2ccccc2[nH]1                T/C  105 % of control
3  O=[N+]([O-])c1ccc(OS(=O)(=O)/C=C/c2ccccc2)cc1                T/C  100 % of control
4  N#CC1CCCC(CCc2ccccc2)(c2ccccc2)C1=N (configuration not stated)                T/C   91 % of control

**Query** Give reported T/C for CCCC1SCC(=O)N1c1nncs1 (configuration not stated) (P388 leukemia ip, CD2F1 mice, survival T/C)
**Result** 103 % of control

**Query** Give reported T/C for CC(=O)N=c1sccn1CC(=O)c1ccccc1 (P388 leukemia ip, CD2F1 mice, survival T/C)
**Result** 100 % of control

###

Test system: P388 leukemia ip, CD2F1 mice, survival T/C
Method Summary: NCI In Vivo Anticancer Drug Screen. Data for tumor model P388 Leukemia (intraperitoneal) in CD2F1 (CDF1) mice
Setup Conditions: endpoint: median survival time; dose: 400.0 mg/kg/injection; schedule: Q01DX001 (ip); vehicle: saline with Tween-80; higher = longer survival
Toxic doses and inconclusive results are not listed.
Property: T/C; scope: individual compounds

**Query** Entry CC(=O)OC1C(=C(Br)Br)C(COC(=O)c2ccccc2)OC1n1cnc2c(NC(=O)c3ccccc3)ncnc21 (stereo not given) needs its T/C filled in; supply it.
**Result** 92 % of control

**Query** Entry CS(C)(=O)=Nc1ccc(F)cc1 needs its T/C filled in; supply it.
**Result** 99 % of control

**Query** Entry O=C(O)Cn1/c(=N\N=C\c2ccccc2)sc2ccccc21 needs its T/C filled in; supply it.
**Result** 93 % of control

**Query** Entry COC(=O)/C(=C/C=C/c1ccccc1)N=[N+]=[N-] needs its T/C filled in; supply it.
**Result** 100 % of control

**Query** Entry c1ccc2c(-c3nc4ccccc4c4ccccc34)nccc2c1 needs its T/C filled in; supply it.
**Result** 99 % of control
